- System: E. coli NIHJ JC-2
- Test Method Notes: Antibacterial activity (MIC), agar dilution
- Assay type: cell-based
- Recorded Conditions: Escherichia coli, NIHJJC2, 20 h, E. coli NIHJ JC-2; 10^6 cells per ml; 37° C., 20 hours; read-out: MIC
Reported Metric: MIC

                                    molecule      result
 0  Cc1nc2cc(-c3cc(=O)c(C(=O)O)cn3-c3ccc(O)cc3)ccc2s1  0.39 µg/mL
 1  Cc1cc(O)ccc1-n1cc(C(=O)O)c(=O)cc1/C=C/c1ccccc1  0.39 µg/mL
 2  CN(C)c1ccc(-c2cc(=O)c(C(=O)O)cn2-c2ccc(O)c(F)c2)cc1  0.39 µg/mL
 3  Cc1ccc(-c2ccc(-c3cc(=O)c(C(=O)O)cn3-c3ccc(O)cc3)cc2)s1   0.2 µg/mL
 4  COCOC(=O)c1cn(-c2ccc(O)cc2)c(-c2ccc(N(C)C)cc2)cc1=O  0.39 µg/mL
 5  O=C(O)c1cn(-c2ccc(O)cc2)c(-c2ccc(-n3cccn3)cc2)cc1=O   0.1 µg/mL
 6  Cn1ccc2cc(-c3cc(=O)c(C(=O)O)cn3-c3ccc(O)cc3)ccc21   0.1 µg/mL
 7  O=C(O)c1cn(-c2ccc(O)cc2)c(-c2ccc(-n3cccc3)cc2)cc1=O   0.1 µg/mL
 8  O=C(O)c1cn(-c2ccc(F)cc2)c(C=Cc2ccncc2)cc1=O  12.5 µg/mL
 9  CN(C)c1ccc(-c2cc(=O)c(C(=O)O)cn2-c2ccc(F)cc2F)cc1  0.78 µg/mL
10  O=C(O)c1cn(-c2ccc(O)cc2F)c(C2CC=CCC2)cc1=O (centres unmarked)  1.56 µg/mL
11  O=C(O)c1cn(-c2ccc(O)cc2)c(-c2ccc3occc3c2)cc1=O  0.39 µg/mL
12  O=C(O)c1cn(-c2ccc(O)cc2)c(-c2ccc(-c3ccccn3)s2)cc1=O  0.39 µg/mL
13  CN1CCOc2cc(-c3cc(=O)c(C(=O)O)cn3-c3ccc(O)cc3F)ccc21  0.39 µg/mL
14  Cc1nc(-c2ccc(-c3cc(=O)c(C(=O)O)cn3-c3ccc(F)cc3)cc2)co1  0.78 µg/mL
15  CC(=O)Oc1ccc(-n2cc(C(=O)O)c(=O)cc2-c2cc3ccccc3o2)cc1  1.56 µg/mL
16  O=C(O)c1cn(-c2ccc(F)cc2)c(C=Cc2cccnc2)cc1=O [drawing 205]  1.56 µg/mL
17  O=C(O)c1cn(-c2ccc(O)cc2)c(-c2cc3ccccc3s2)cc1=O   0.2 µg/mL
18  CN(C)c1ccc(-c2cc(=O)c(C(=O)O)cn2-c2ccc(O)cc2)cc1 [drawing 206]   0.2 µg/mL
19  CC(=O)Oc1ccc(-n2cc(C(=O)O)c(=O)cc2-c2ccc(-c3cccs3)cc2)cc1   0.2 µg/mL

Reference for the values: patent US4698352A
